Test system: B. cinerea
experiment_summary: MIC antifungal assay in SFM culture media (with or without added salts)
Type: cell-based, Botrytis cinerea
reported_conditions: in vitro, low cationic conditions
Non-standard residues stand in square brackets, D forms with d. Residues, ends and D or L forms follow the SMILES beside them. Dab = NCC[C@H](N)C(=O)O
readout_name: antifungal activity relative to the wild-type GMA4C_AC control, B. cinerea

molecule="CC[C@H](C)[C@H](NC(=O)[C@H](CCCNC(=N)N)NC(=O)[C@@H](NC(=O)[C@@H](NC(=O)[C@H](Cc1ccccc1)NC(=O)[C@@H](NC(=O)[C@H](CCCNC(=N)N)NC(=O)[C@H](CCCNC(=N)N)NC(=O)[C@H](CCCNC(=N)N)NC(=O)[C@H](Cc1ccccc1)NC(=O)CNC(=O)[C@H](CCCNC(=N)N)NC(=O)[C@H](CS)NC(=O)[C@H](CCCNC(=N)N)NC(=O)CNC(=O)CN)C(C)C)C(C)C)[C@@H](C)O)C(=O)N[C@@H](CS)C(N)=O [GMA4C_V3A] (H-GGRCRGFRRRVFVTRIC-NH2; N-terminus assumed)" val=equivalent
molecule="NCC[C@H](NC(=O)CNC(=O)[C@@H](N)Cc1ccccc1)C(=O)N[C@@H](CS)C(=O)N[C@@H](CCN)C(=O)NCC(=O)N[C@@H](Cc1ccccc1)C(=O)N[C@@H](CCN)C(=O)N[C@@H](CCN)C(=O)N[C@@H](CCN)C(=O)N[C@@H](CS)C(=O)N[C@@H](Cc1ccccc1)C(=O)N[C@@H](CS)C(=O)N[C@@H](Cc1c[nH]c2ccccc12)C(=O)N[C@@H](CCN)C(=O)N[C@@H](Cc1c[nH]c2ccccc12)C(=O)N[C@@H](CS)C(N)=O [GMA4C_V5A] (H-FG[Dab]C[Dab]GF[Dab][Dab][Dab]CFCW[Dab]WC-NH2; N-terminus assumed)" val=equivalent
molecule="CC[C@H](C)[C@H](NC(=O)[C@H](CCCNC(=N)N)NC(=O)[C@@H](NC(=O)[C@H](CS)NC(=O)[C@H](Cc1ccccc1)NC(=O)[C@H](CS)NC(=O)[C@H](CCCNC(=N)N)NC(=O)[C@H](CCCNC(=N)N)NC(=O)[C@H](CCCNC(=N)N)NC(=O)[C@H](Cc1ccccc1)NC(=O)CNC(=O)[C@H](CCCCN)NC(=O)[C@H](CS)NC(=O)[C@H](CCCNC(=N)N)NC(=O)CNC(=O)CN)[C@@H](C)O)C(=O)N[C@@H](CS)C(N)=O [GMA4C_V1A] (H-GGRCKGFRRRCFCTRIC-NH2; N-terminus assumed)" val=equivalent
